As shown below, each of these molecules has a reported MIC grade, C. PARAPSILOSIS, RPMI media value.
Test system: C. parapsilosis
Test Summary: Minimum inhibitory concentration, RPMI medium
Type: cell-based
Condition Set: banded MIC grade
Description: The compound was dissolved in DMSO to give a solution containing 5 mg/mL. Tubes were stored at −20° C. until required. On the day of testing thawed solutions were vortex mixed to ensure homogeneity. 30 μL of solution was removed and added to 570 μL of sterile water in a separate sterile Eppendorf. The thoroughly mixed solution was used to prepare a series of doubling dilutions in water, in a deep well plate. […] Growth was assessed by monitoring the optical density at 485 nm for each well. […]

Illustrative cases are given below, each with its answer.
{"Structure Notation": "N#Cc1ccc(C2=NN=C(N)SC2)cc1", "Assay System": "C. parapsilosis", "MIC grade, C. PARAPSILOSIS, RPMI media": "1 (1: ≥20 mg/L)"}
{"Structure Notation": "NC1=NN=C(CCCCOCc2ccc(Cl)c(F)c2)CS1", "Assay System": "C. parapsilosis", "MIC grade, C. PARAPSILOSIS, RPMI media": "4 (4: <1 mg/L)"}

Inquiry: # return MIC grade, C. PARAPSILOSIS, RPMI media for "NC1=NN=C(c2ccccn2)CS1" , test system: C. parapsilosis
Reply text: 1 (1: ≥20 mg/L)

Inquiry: Please report the measured MIC grade, C. PARAPSILOSIS, RPMI media for "CCCCOCCC1=CNN=C(N)S1" tested on C. parapsilosis.
Reply text: 1 (1: ≥20 mg/L)

Inquiry: State the measured MIC grade, C. PARAPSILOSIS, RPMI media (C. parapsilosis) of "CCCCCCCC1=CSC(N)=NN1"
Reply text: 3 (3: 1-5 mg/L)
